- MEASUREMENT TARGET: UniProt P30536
pKd: −log10 of the molar value.
RECORDED ENDPOINT: pKd

SUBSTANCE SMILES	MEASUREMENT TARGET	RECORDED ENDPOINT	RESULT
C=Cc1c(C)c2cc3nc(c4c5[nH]c(cc6nc(cc1[nH]2)C(C)=C6CC)c(C)c5C(=O)C4)[C@@H](CCC(=O)NCCCCCCNC(=O)c1cc2ccccc2c(-c2ccccc2I)n1)[C@@H]3C	UniProt P30536	pKd	7.40

* * *

- MEASUREMENT TARGET: Translocator protein (Homo sapiens)
- Sequence (P30536 whole entry): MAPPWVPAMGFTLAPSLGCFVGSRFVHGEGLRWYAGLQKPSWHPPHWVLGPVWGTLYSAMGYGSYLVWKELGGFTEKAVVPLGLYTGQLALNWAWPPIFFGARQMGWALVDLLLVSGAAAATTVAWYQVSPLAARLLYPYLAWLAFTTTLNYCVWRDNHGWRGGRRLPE
Overview of reported IC50 across a group of compounds:
RECORDED ENDPOINT: IC50 (nM)

SUBSTANCE SMILES	RECORDED ENDPOINT	RESULT
C=Cc1c(C)c2cc3nc(c4c5[nH]c(cc6nc(cc1[nH]2)C(C)=C6CC)c(C)c5C(=O)C4)[C@@H](CCC(=O)N(C)CCN(C)C(=O)c1cc2ccccc2c(-c2ccccc2I)n1)[C@@H]3C	IC50	1000
C=Cc1c(C)c2cc3nc(c4c5[nH]c(cc6nc(cc1[nH]2)C(C)=C6CC)c(C)c5C(=O)C4)[C@@H](CCC(=O)N(C)CCCCCCN(C)C(=O)c1cc2ccccc2c(-c2ccccc2I)n1)[C@@H]3C	IC50	210
C=Cc1c(C)c2cc3nc(c4c5[nH]c(cc6nc(cc1[nH]2)C(C)=C6CC)c(C)c5C(=O)C4)[C@@H](CCC(=O)NCCCCCCNC(=O)c1cc2ccccc2c(-c2ccccc2I)n1)[C@@H]3C	IC50	310
C=Cc1c(C)c2cc3nc(c4c5[nH]c(cc6nc(cc1[nH]2)C(C)=C6CC)c(C)c5C(=O)C4)[C@@H](CCC(=O)NCCCCCCN)[C@@H]3C	IC50	25000
